Record form. Attribute: TGI. Fill in for each entry.
system: OVCAR-8 ovarian; test: NCI tumour cell line growth inhibition, 48 h
The response must be a number in µM with no trailing unit.

Entry "O=C(Nc1ccccc1)OCCN=c1c2ccccc2ccc2ccccc12" : reported TGI = ?
84

Entry "COc1ccc(OC(=O)N2C/C(=C\c3ccccc3)C(=O)/C(=C/c3ccccc3)C2)cc1" : reported TGI = ?
7.57

Entry "c1cc[n+](Cc2c3ccccc3cc3c2ccc2ccccc23)cc1" : reported TGI = ?
16.1

###

system: SK-OV-3 ovarian; experiment: NCI tumour cell line growth inhibition, 48 h
Record form. Attribute: GI50. Fill in for each entry.

Entry "CC(C)n1cc(-c2ccc3c(c2)N(C)CC3)c2c(NS(=O)(=O)c3ccn(C)n3)ccnc21" : reported GI50 = ?
> 100 µM

Entry COc1cc(/C=C2\CC3C4CCC5=CC(=O)CC[C@]5(C)C4CC[C@]3(C)C2=O)ccc1OCCN1CCCC1 (some centres not stated) : reported GI50 = ?
4.56 µM

Entry "CC(=O)[O-].CC(=O)[O-].O=C([CH-]C(=O)c1ccccc1)c1ccccc1.[Nd+3].[OH3+]" : reported GI50 = ?
27 µM

Entry "COc1cc2c(Nc3ccc(-c4ccc(N)cc4)cc3)ncnc2c(OC)c1OC" : reported GI50 = ?
46.5 µM

Entry CCOC(=O)C1=C(C)NC2SC(=O)/C(=C\c3cccc(Cl)c3)N2C1c1ccccc1 (configuration not stated) : reported GI50 = ?
> 100 µM

Entry "NS(=O)(=O)c1ccc(N=Nc2c(O)[nH]c3ccc(C(=O)NCCCn4ccnc4)cc23)cc1" : reported GI50 = ?
> 25 µM

Entry "Cn1c2c(c3ccccc31)CCN1C[C@@H]3CCCC[C@H]3C[C@@H]21" : reported GI50 = ?
2.82 µM

Origin of values: PubChem BioAssay (NCI)
